test system: 2780AD; test: MTT growth inhibition, 2780AD adriamycin (doxorubicin) resistant ovarian cancer cell line; assay type: cell-based; conditions: 2780AD; read-out: IC50 2780AD

>  <mol.smiles>
CN(C)CCNc1ccc(NCCN(CCCl)CCCl)c2c1C(=O)c1c(O)ccc(O)c1C2=O

>  <target.entity>
2780AD

>  <IC50 (nM)>
16

$$$$

###

Recorded IC50 by entry
tested on: 2780AD; assay: MTT growth inhibition, 2780AD adriamycin (doxorubicin) resistant ovarian cancer cell line; format: cell-based; conditions: 2780AD adriamycin resistant variant; MTT assay, 24 hour drug exposure; mean of triplicate; read-out: Growth Inhibition of Ovarian Cancer Cell Lines (IC50/nM) 2780AD

>  <molecule>
COc1cccc2c1C(=O)c1c(O)c3c(c(O)c1C2=O)C[C@@](O)(C(=O)CO)C[C@@H]3O[C@H]1C[C@H](N)[C@H](O)[C@H](C)O1

>  <unit.descriptor>
nM

>  <IC50>
4860

$$$$
>  <molecule>
N.N.[Cl][Pt][Cl] [Cisplatin, cisplatin]

>  <unit.descriptor>
nM

>  <IC50>
3020

$$$$
